# cytotoxicity at 10 µM per entry
assay: Toxicity liver stage against HepG2, at 10uM; type: cell-based; set-up: test concentration 10 uM, cell line HepG2-A16-CD81EGFP; settings: human, HepG2-A16-CD81EGFP cells; read-out: INHIBITION
Readout: cytotoxicity at 10 µM (%)

>>> observed_measurement("COc1ccc(F)c(CN2CCCC3(CCN(C(=O)CSC)C3)C2)c1 (centres undefined)")
0.15
>>> observed_measurement("O=C(c1cnccn1)N1C[C@@H](OCc2ccncc2)[C@@H]2OCCC[C@@H]21")
-2.91
>>> observed_measurement("CCc1ccc2c(c1)C(CCNC(=O)c1sccc1C)C(=O)N2 (centres undefined)")
-52.3
>>> observed_measurement("Clc1ccccc1-c1nc(CNC2CCc3ncnn3C2)cs1 (centres undefined)")
-4.28
>>> observed_measurement("CC(C)(C(N)=O)N1CCN(C(=O)c2ccn(-c3cccc(Cl)c3)n2)CC1")
-13.3
>>> observed_measurement("CCCn1ncc(C(=O)NC2CCN(CC3CCCO3)CC2)c1C (centres undefined)")
-2.43
>>> observed_measurement("CCO[C@H]1CN(C)C[C@@H]1NC(=O)c1cc(C)nc2c(C)c(C)ccc12")
1.64
>>> observed_measurement("N#Cc1ccc(OC2CCN(CC(=O)NCC3CCCO3)CC2)cc1 (centres undefined)")
34.8
>>> observed_measurement("CCOc1ncccc1C(=O)N1CCCC1Cn1cc(C)cn1 (centres undefined)")
0.787
>>> observed_measurement("Cn1ncc2c(N[C@H]3CCCC[C@@H]3O)nc(C(C)(C)C)nc21")
-21.5
>>> observed_measurement("CN(C)CCN1C[C@@H]2CN(C(=O)C3CCOC3)C[C@@H]2C1=O (some centres undefined)")
-5.18
>>> observed_measurement("CC(C)n1nnc(CC(=O)NCC2(c3ccccc3F)CCOCC2)n1")
2.35
>>> observed_measurement("CCc1sc(C(=O)N2CCC(Nc3ccc(C)nn3)CC2)cc1C")
1.86
>>> observed_measurement("CC(C)c1noc(C(C)N2CCN(Cc3ccccc3C#N)CC2)n1 (centres undefined)")
-8.13
>>> observed_measurement("CS(=O)(=O)N1C[C@H]2CC[C@@H](C1)N(CCC(=O)NCc1ccco1)C2")
-17.9
>>> observed_measurement("O=C(O)C1(n2ccnc2)CCN(Cc2cc3ccccc3o2)CC1")
-6.34
>>> observed_measurement("CN(C)C(=O)N1C[C@H]2CC[C@@H](C1)N(C(=O)c1c(Cl)cccc1Cl)C2")
7.2
>>> observed_measurement("N#Cc1ccc(CCC(=O)N2CCCC(n3cncn3)C2)cc1 (centres undefined)")
-7.79
>>> observed_measurement("COC(=O)c1cccn1C1CCN(S(=O)(=O)c2ccccc2)CC1")
-11.1
>>> observed_measurement("CC(C)c1nc(C2CCCN2CCc2ccccn2)no1 (centres undefined)")
3.38
>>> observed_measurement("COCCCS(=O)(=O)N(Cc1cccc(C)c1)Cc1ccccn1")
2.47
>>> observed_measurement("CN(Cc1n[nH]c(=O)n1Cc1ccco1)S(C)(=O)=O")
-1.25
>>> observed_measurement("O=C(Cc1ccccn1)N1CCN(CC2CC2)c2ncccc2C1")
1.34
>>> observed_measurement("OCCc1cn(CC2CCCN(Cc3nccs3)C2)nn1 (centres undefined)")
-6.51
>>> observed_measurement("CC(C)N1CC[C@H](c2nnc(Cc3c[nH]c4ccccc34)o2)C1")
-9.04
>>> observed_measurement("OC(COCc1ccccc1F)CN1CCc2c(ncn2C2CC2)C1 (centres undefined)")
2.86
>>> observed_measurement("COc1cc(C2(C(=O)NCC(=O)NC3CC3)CC2)ccc1C")
-17.4
>>> observed_measurement("Cc1cc(C(=O)NCc2cccnc2N(C)C)c(C)o1")
-9.51
>>> observed_measurement("COc1ncc(NC(=O)Nc2cc(C)ccc2OC)cn1")
2.76
>>> observed_measurement("O=C(Nc1ccc(-c2ccccc2)cn1)C1CCCN1C(=O)C1CC1 (centres undefined)")
-1.6
>>> observed_measurement("COCC(=O)N1CCC2(CCN(Cc3ccccn3)CC2)CC1")
-6.62
>>> observed_measurement("CCc1nc(C2CCCN2CC(=O)Nc2sc(C)c(C)c2C)no1 (centres undefined)")
-10.9
>>> observed_measurement("Cc1nc(NC(=O)NC2CC(=O)N(C)C2)nn1C (centres undefined)")
-12.2
>>> observed_measurement("COc1ccc(C(N)=O)cc1NCc1ncc(-c2cccs2)o1")
8.2
>>> observed_measurement("Cc1ccc(C(=O)N2C[C@@H]3C[C@@H](c4nnc(C5CC5)o4)O[C@@H]3C2)s1")
-133
>>> observed_measurement("Cc1nc(C2CCCN2C(=O)c2cnns2)no1 (centres undefined)")
-3.71
>>> observed_measurement("Fc1cccc(CNc2cncc(-n3cccn3)n2)c1")
0.959
>>> observed_measurement("O=C(C1CC(=O)N(c2ccccc2Br)C1)N1CCN(CC(F)(F)F)CC1 (centres undefined)")
7.29
>>> observed_measurement("Cc1nc(Nc2cnccn2)cc(C2CCCN2C2CCOCC2)n1 (centres undefined)")
-17.3

---

# cytotoxicity at 10 µM per entry
test: Toxicity liver stage against HepG2, at 10uM; format: cell-based; design: test concentration 10 uM, cell line HepG2-A16-CD81EGFP; settings: human, HepG2-A16-CD81EGFP cells; read-out: INHIBITION
Readout: cytotoxicity at 10 µM

>>> observed_measurement("CC(C)CC(=O)N1CC(=O)c2sc(Nc3ccc(F)cc3F)nc2C1")
"-2.89%"
>>> observed_measurement("CC(C)(CN1CCCC1)CN1CCC(Cn2cc(C3CC3)nn2)CC1")
"-12.2%"
>>> observed_measurement("Cc1c(C(=O)N2CCOCC2)nnn1-c1ccc2ncccc2c1")
"-4.87%"
>>> observed_measurement("O[C@@H]1CN(c2nc3ccccc3s2)CC[C@H]1c1ccc2c(c1)OCO2")
"52.7%"
>>> observed_measurement("CC(C)(C)CC(=O)NC[C@H]1OC[C@@H](NCc2ccccn2)[C@@H]1O")
"-5.28%"
>>> observed_measurement("c1csc(-c2cc(CN3CCN(c4nccs4)CC3)no2)c1")
"13.2%"
>>> observed_measurement("COCCc1noc(CN2CCCC2c2c(C)nn(C)c2OC)n1 (centres undefined)")
"-2.36%"
>>> observed_measurement("Cc1cc(C)cc(N(CCC#N)C(=O)CN2CCCC2c2cccs2)c1 (centres undefined)")
"-1.61%"
>>> observed_measurement("O=C(c1ccco1)N1CCN2C[C@H](Oc3cncnc3)C[C@H]2C1")
"-2.97%"
>>> observed_measurement("CN1CCN(CCCNC(=O)CCc2nc3cc(Br)cnc3[nH]2)CC1")
"-124%"
>>> observed_measurement("O=C(NCCN1CCCCCC1)c1cccc(Cl)c1Cl")
"5.8%"
>>> observed_measurement("Cc1ccc(-c2nc(CN3CCOCC3)no2)cc1N1CCNC1=O")
"-5.73%"
>>> observed_measurement("CCCC1COCCN1Cc1ccc(NC(C)=O)cc1 (centres undefined)")
"-145%"
>>> observed_measurement("COc1cccc(OCCCc2cc(C#N)ccn2)c1")
"-9.72%"
>>> observed_measurement("O=C1CC[C@@H]2[C@@H](CCN2Cc2ccccn2)N1CC1CC1")
"4.76%"
>>> observed_measurement("O=C(c1cc(=O)c(OCc2ccccc2F)co1)N1CCSCC1")
"-3.82%"
>>> observed_measurement("Cc1cccc(C2(C(=O)NCCCn3cccn3)CC2)c1")
"-7.66%"
>>> observed_measurement("CCCS(=O)(=O)N1CCOC2(CCCN(c3ccc(C)nn3)C2)C1 (centres undefined)")
"2.08%"
>>> observed_measurement("CC(NCc1cc2cc(F)ccc2o1)c1nnc2n1CCCC2 (centres undefined)")
"-7.93%"
>>> observed_measurement("Cn1cc(CN2CCCC3(CCCN3S(C)(=O)=O)C2)cn1 (centres undefined)")
"2.08%"
>>> observed_measurement("Cc1ccccc1CN1CCN(C(=O)c2cnc(C3CC3)[nH]c2=O)CC1")
"2.25%"
>>> observed_measurement("CS(=O)(=O)N1CCO[C@@H]2CN(C(=O)Cc3cccs3)CC[C@@H]2C1")
"-108%"
>>> observed_measurement("CN(C)c1ncnc2c1CCN(S(=O)(=O)c1cccc3nsnc13)C2")
"4.01%"
>>> observed_measurement("Cc1ccnn1CCC(=O)N1CCCC[C@@]2(C)[C@@H]1CCC(=O)N2C")
"3.38%"
>>> observed_measurement("CC(C)N1CCC(CC(=O)N(C)CC(=O)c2ccc(O)cc2)CC1")
"5.21%"
>>> observed_measurement("CN1CCCN(C(=O)NCc2ccccc2Cn2cncn2)CC1")
"3.58%"
>>> observed_measurement("Cc1noc(C(C)C)c1C(=O)N1CCC(n2cccn2)CC1")
"-4.32%"
>>> observed_measurement("Cc1nn(C)c(C)c1-c1c(-c2ccccc2)ncn1[C@H](CO)C(=O)O")
"-2.34%"
>>> observed_measurement("Cc1ncsc1C(=O)OCCN1CCCc2ccccc21")
"2.42%"
>>> observed_measurement("CSCC(C)(O)CNC(=O)c1ccc(F)cc1Br (centres undefined)")
"0.369%"
>>> observed_measurement("CC(C)C(=O)N1CCC2(CCN2CC2CC2)C1 (centres undefined)")
"8.98%"
>>> observed_measurement("Cc1nn(C)c2c(=O)n(Cc3ccc(F)cc3)nnc12")
"3.41%"
>>> observed_measurement("Cc1n[nH]c(C)c1C1COCCN1C(=O)c1cccc(F)c1F (centres undefined)")
"-8.45%"
>>> observed_measurement("NC(=O)c1cn[nH]c1C1CCCN1C(=O)c1ccccn1 (centres undefined)")
"0.893%"
>>> observed_measurement("Cc1nc(C2CCCN(C(=O)c3scnc3C)C2)no1 (centres undefined)")
"-3.18%"
>>> observed_measurement("O=C(c1ccoc1)N1CCc2ncnc(NCc3ccccn3)c2CC1")
"0.224%"
>>> observed_measurement("CCS(=O)(=O)CCn1ccc(NC(=O)CCc2cccc(C)c2)n1")
"2.94%"
>>> observed_measurement("CCC(=O)N1CCN(Cc2cnc(C)nc2)[C@H]2CS(=O)(=O)C[C@H]21")
"12.3%"
>>> observed_measurement("CCc1noc(C2CCCCN2C(=O)c2cccs2)n1 (centres undefined)")
"6.5%"
